# test: DUSP6 inhibitors restoring Erk phosphorylation by chemical complementation, primary imaging in DUSP6-transfected HeLa (AID 609)
# test settings: HeLa MKP-3 transfected, phospho-Erk imaging KS statistic; measured here: nuclear c-Myc green intensity z-score; at 10 µM; cells stimulated with TPA for 15 min

compound | z-score
Cc1cc(=O)oc2ccc(OCC(=O)N3CCc4ccccc43)cc12 | 0.803
CC(=O)C1=C(O)C(=O)N(c2ccc(Br)cn2)C1c1ccccc1F (stereo not given) | -1.7
COCCn1c(SCc2c(F)cccc2Cl)nc2c1c(=O)[nH]c(=O)n2C | -2.3
C=C(C)CC1N(c2cccc(OC)c2)C(=O)[C@@H]2C(C(=O)O)[C@H]3C=C[C@@]12O3 (stereo not given in full) | 1.19
C=CCNc1nc(NCc2ccccc2)c(C#N)c2c1CN(C)CC2 | -0.0927
